- TESTED ON: T1, Ep-CAM (UniProt P16422 24-265, limits assumed)
- T1 construct: Antigen of the Biacore analysis of ING-1 variants
- T1 sequence (looked up): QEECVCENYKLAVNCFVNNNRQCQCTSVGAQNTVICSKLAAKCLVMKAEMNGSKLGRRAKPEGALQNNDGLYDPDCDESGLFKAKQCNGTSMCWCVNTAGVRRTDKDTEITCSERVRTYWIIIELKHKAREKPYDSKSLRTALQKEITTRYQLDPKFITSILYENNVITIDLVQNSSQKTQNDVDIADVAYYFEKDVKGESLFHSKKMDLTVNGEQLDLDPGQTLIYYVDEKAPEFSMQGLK
- TEST PROTOCOL: Biacore, Fab periplasmic extract

>  <BINDER>
ING-1 heavy chain T55Y (Fab, V domains shown) VH: QIQLVQSGPELKKPGETVKISCKASGYTFTKYGMNWVKQAPGKGLKWMGWINTYYEEPTYGDDFKGRFAFSLETSASTANLQINNLKSEDTATYFCARFGSAVDYWGQGTSVTVSS VL: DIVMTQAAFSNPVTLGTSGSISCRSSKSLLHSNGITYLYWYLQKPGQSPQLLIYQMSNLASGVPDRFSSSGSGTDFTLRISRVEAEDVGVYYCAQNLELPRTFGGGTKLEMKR

>  <fold difference in affinity vs original>
0.03 fold

$$$$
